# measured-target: 5-lipoxygenase (Rattus norvegicus, UniProt P12527)
# Construct: containing the 20,000xg supernatant from 6x10⁴ homogenized RBL-1 cells; endogenous in cells
# Sequence (P12527 whole entry): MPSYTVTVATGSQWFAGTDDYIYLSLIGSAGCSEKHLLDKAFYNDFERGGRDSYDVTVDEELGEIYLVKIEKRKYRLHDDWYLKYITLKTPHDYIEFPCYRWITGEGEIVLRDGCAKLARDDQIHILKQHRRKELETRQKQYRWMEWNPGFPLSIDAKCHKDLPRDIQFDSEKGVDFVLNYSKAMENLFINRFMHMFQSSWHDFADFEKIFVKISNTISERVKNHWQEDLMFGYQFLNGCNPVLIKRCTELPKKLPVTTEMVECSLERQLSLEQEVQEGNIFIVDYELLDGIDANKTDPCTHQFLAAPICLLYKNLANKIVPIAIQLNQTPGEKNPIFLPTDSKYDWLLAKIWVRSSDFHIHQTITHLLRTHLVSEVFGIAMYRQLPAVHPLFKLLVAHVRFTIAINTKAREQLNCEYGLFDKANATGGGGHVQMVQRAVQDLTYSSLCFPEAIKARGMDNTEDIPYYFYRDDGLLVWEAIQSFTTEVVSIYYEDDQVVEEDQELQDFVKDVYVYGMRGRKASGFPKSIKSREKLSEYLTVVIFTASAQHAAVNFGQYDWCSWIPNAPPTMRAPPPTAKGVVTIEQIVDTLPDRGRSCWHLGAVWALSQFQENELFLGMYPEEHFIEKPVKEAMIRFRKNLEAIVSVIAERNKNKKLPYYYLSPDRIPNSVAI
# assay-name: Lipoxygenase IC50 determination (20,000xg supernatant from homogenized RBL-1 cells, radiolabelled arachidonic acid)
# condition-context: 20,000xg supernatant from 6x10⁴ homogenized RBL-1 cells, 2% DMSO vehicle, triplicate incubations; read-out: IC₅₀
observed-property: IC50 (µM)

Field: example entries. Status: answers known.
CC(=O)ON(C(N)=O)C(C)c1cc2ccccc2s1 (stereo not shown)	2.1
COC(=O)ON(C(N)=O)C(C)c1cc2ccccc2s1 (stereo not shown)	1.2

A: CC(c1cc2ccccc2s1)N(O)C(=O)NC(N)=O (stereo not shown)
B: CC(=O)NC(=O)N(O)C(C)c1cc2ccccc2s1 (stereo not shown)
# input Between the two listed entries A and B , which has its IC50 at the higher number? Reply briefly: the label of your chosen item.
# output B

I: CC(=O)N(O)C(C)c1cc2ccccc2s1 (stereo not shown)
II: CC(c1cc2ccccc2s1)N(OC(=O)CCC(=O)O)C(N)=O (stereo not shown)
# input Between the two listed entries I and II , which has its IC50 at the higher number? Reply briefly: the label of your chosen item.
# output I
(I: 1.1 µM, II: 0.6 µM)
